Where these numbers come from: patent US8129527B2

# Measurement Protocol: Tumor panel screen cytotoxicity (Example 10A)
# Format: cell-based, human
# Experimental Parameters: human, CCD-27sk normal fibroblast cells; CCD-27sk Fibroblast; maximum cytotoxic effect
Measured Property: cytotoxicity at 48 h

Q: Entry CC(C)(C)c1[nH]cnc1/C=C1\NC(=O)[C@H](Cc2ccccc2)NC1=O : reported cytotoxicity at 48 h = ?
Result: 45%

----------
The entries below come with measured EC50 values attached.
# Tested on: HT-29 cells
# Measurement Protocol: Additional cytotoxicity assays, resazurin (Table 3.1)
# Type: cell-based, human
# Experimental Parameters: Homo sapiens, HT-29; Table 3.1; read-out: EC50 (M) Mean
Provide the reading as a plain figure in M.

Cpd Smiles: CC(C)(C)c1[nH]cnc1/C=c1\[nH]c(=O)/c(=C/c2cc(Cl)ccc2[N+](=O)[O-])[nH]c1=O
EC50 [M]: 9.97e-08

Q: Entry COc1cc(/C=c2\[nH]c(=O)/c(=C/c3nc[nH]c3C(C)(C)C)[nH]c2=O)cc(OC)c1 : reported EC50 = ?
Result: 4.54e-08

Q: Entry CC(C)(C)c1[nH]cnc1/C=c1\[nH]c(=O)/c(=C/c2cccc3c2OCO3)[nH]c1=O : reported EC50 = ?
Result: 5.2e-07

----------
The entries below come with measured melting point values attached.

Solved cases (2 shown):
Cpd Smiles: Cc1cccc(/C=c2\[nH]c(=O)/c(=C/c3ncoc3C(C)(C)C)[nH]c2=O)c1C
Measured Property: melting point
Result: 167 to 169 °C
//
Cpd Smiles: CC(C)(C)c1ocnc1/C=c1\[nH]c(=O)/c(=C/c2cc(F)cc(F)c2F)[nH]c1=O
Measured Property: melting point
Result: 185 to 187 °C

Q: Entry CC(C)(C)c1ocnc1/C=c1\[nH]c(=O)/c(=C/c2ccc(Br)o2)[nH]c1=O : reported melting point = ?
Result: 184 to 186 °C

----------
# Tested on: HT-29 cells
# Measurement Protocol: Additional cytotoxicity assays, resazurin (Table 3.1)
# Type: cell-based, human
# Experimental Parameters: Homo sapiens, HT-29; Table 3.1; read-out: EC50 (M) Mean
Measured Property: EC50

Compound: COc1ccc(/C=c2\[nH]c(=O)/c(=C/c3nc[nH]c3C(C)(C)C)[nH]c2=O)c(O)c1
EC50: > 2e-05 M

Q: Entry CC(C)(C)c1[nH]cnc1/C=c1\[nH]c(=O)/c(=C/c2ccc(C#N)cc2)[nH]c1=O : reported EC50 = ?
Result: > 2e-05 M

Q: Entry C=CC(C)(C)c1[nH]cnc1/C=C1\N=C(OC)C(Cc2ccccc2)N=C1OC (racemic) : reported EC50 = ?
Result: > 2e-05 M

Q: Entry CC(C)(C)c1[nH]cnc1/C=c1\[nH]c(=O)/c(=C/c2cc(Cl)ccc2O)[nH]c1=O : reported EC50 = ?
Result: > 2e-05 M

Q: Entry COc1cc(OC)c(/C=c2\[nH]c(=O)/c(=C/c3nc[nH]c3C(C)(C)C)[nH]c2=O)c(OC)c1 : reported EC50 = ?
Result: > 2e-05 M

Q: Entry COc1cc(/C=c2\[nH]c(=O)/c(=C/c3nc[nH]c3C(C)(C)C)[nH]c2=O)ccc1F : reported EC50 = ?
Result: 4.93e-07 M

Q: Entry CC(C)(C)c1[nH]cnc1/C=c1\[nH]c(=O)/c(=C/c2ccc(Br)o2)[nH]c1=O : reported EC50 = ?
Result: 3.05e-08 M

Q: Entry CSc1ccccc1/C=c1\[nH]c(=O)/c(=C/c2nc[nH]c2C(C)(C)C)[nH]c1=O : reported EC50 = ?
Result: 2.86e-08 M

Q: Entry C=CC(C)(C)c1[nH]cnc1/C=C1\NC(=O)C(Cc2ccccc2)N=C1OC (racemic) : reported EC50 = ?
Result: > 2e-05 M
